What phosphorylation enrichment was measured for each of the following?
target: Fyn (UniProt P06241)
Sequence (P06241 whole entry, looked up): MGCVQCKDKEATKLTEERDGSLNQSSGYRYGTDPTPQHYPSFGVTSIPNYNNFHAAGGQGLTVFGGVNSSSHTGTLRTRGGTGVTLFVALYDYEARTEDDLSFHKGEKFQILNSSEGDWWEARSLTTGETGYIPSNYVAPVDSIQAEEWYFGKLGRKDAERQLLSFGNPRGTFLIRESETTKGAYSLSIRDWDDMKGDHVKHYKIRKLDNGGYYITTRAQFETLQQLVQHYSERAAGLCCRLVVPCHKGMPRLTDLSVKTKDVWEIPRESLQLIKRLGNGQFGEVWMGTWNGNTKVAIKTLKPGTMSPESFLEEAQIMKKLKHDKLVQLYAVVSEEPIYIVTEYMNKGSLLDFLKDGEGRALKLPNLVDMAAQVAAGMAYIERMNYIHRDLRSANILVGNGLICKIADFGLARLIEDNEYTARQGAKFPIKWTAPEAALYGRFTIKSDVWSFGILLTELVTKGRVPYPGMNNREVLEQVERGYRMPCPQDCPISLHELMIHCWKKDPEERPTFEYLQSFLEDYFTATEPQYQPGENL
protocolSummary: phosphorylation enrichment, bacterial display (enrichment ratio); higher = better substrate or ligand; peptides without Tyr show the background;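 also: 11-residue human phosphosite peptides and single-mutation variants displayed on the E. coli surface, counted by deep sequencing, each peptide's frequency after selection divided by its frequency in the unselected input library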;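 also: frequency after pTyr selection over input frequency; kinase dosed for 20-30% of maximal phosphorylation in three min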
One number for each entry.

For each listed entry, give its phosphorylation enrichment.
1. GFEVVYMTEPI [HSP90AB1_Y512]
2. AHEALYLEADL [CENPF_Y1920_E1915A]
3. GRQGIYTKNER [GPR143_Y231_E233K]

result:
1. 0.557
2. 0.692
3. 0.386

For each listed entry, give its phosphorylation enrichment.
1. STLEVYRCHPP [IL21R_Y317_S318R]
2. WFPSTYVEEDE [VAV3_Y842]
3. PLFSKYWPNHI [GREB1L_Y1560_R1558S_YF]

result:
1: 0.542; 2: 0.51; 3: 0.805

query: Reported phosphorylation enrichment for Fyn (UniProt P06241), given IFRASYVPFAA [RBM47_Y541_G538R_YF] ?
result: 0.463

---

target: Hck (UniProt P08631)
Sequence (P08631 whole entry, looked up): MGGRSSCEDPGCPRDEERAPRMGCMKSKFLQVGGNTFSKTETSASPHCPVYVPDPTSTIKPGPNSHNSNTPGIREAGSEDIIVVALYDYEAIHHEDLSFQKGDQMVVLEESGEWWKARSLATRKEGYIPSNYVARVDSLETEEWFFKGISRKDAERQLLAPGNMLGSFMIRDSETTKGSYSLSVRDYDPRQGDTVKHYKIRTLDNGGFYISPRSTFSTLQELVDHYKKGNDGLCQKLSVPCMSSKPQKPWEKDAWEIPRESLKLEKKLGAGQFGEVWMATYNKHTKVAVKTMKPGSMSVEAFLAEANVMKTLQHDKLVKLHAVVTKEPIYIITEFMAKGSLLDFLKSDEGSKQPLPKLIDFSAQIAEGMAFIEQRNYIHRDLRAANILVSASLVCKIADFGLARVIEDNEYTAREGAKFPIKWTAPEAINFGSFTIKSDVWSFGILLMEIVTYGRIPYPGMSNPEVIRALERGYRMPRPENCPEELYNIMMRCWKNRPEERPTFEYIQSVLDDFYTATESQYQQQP
protocolSummary: phosphorylation enrichment, bacterial display (enrichment ratio); higher = better substrate or ligand; peptides without Tyr show the background
What phosphorylation enrichment was measured for each of the following?
One number for each entry.

The examples below pair each entry with its known result.
>  <querySequence>
GFEVVYMTEPI [HSP90AB1_Y512]

>  <target>
Hck (UniProt P08631)

>  <phosphorylation enrichment>
0.668

$$$$
>  <querySequence>
DLFRLYVCVKE [ARID1B_Y1091]

>  <target>
Hck (UniProt P08631)

>  <phosphorylation enrichment>
0.475

$$$$
>  <querySequence>
FTGDIYSSSNL [LZTR1_Y141_N143S_YF]

>  <target>
Hck (UniProt P08631)

>  <phosphorylation enrichment>
5.66

$$$$
>  <querySequence>
NRDNTYNPVSE [FGA_Y127_R129P]

>  <target>
Hck (UniProt P08631)

>  <phosphorylation enrichment>
0.658

$$$$
>  <querySequence>
GKSDPYHATSG [GJA1_Y247]

>  <target>
Hck (UniProt P08631)

>  <phosphorylation enrichment>
0.365

$$$$
>  <querySequence>
QGCGIYKDYYR [PLA2G2D_Y82_S80G]

>  <target>
Hck (UniProt P08631)

>  <phosphorylation enrichment>
3.57

$$$$
>  <querySequence>
LDFNEYFRDLN [HPRT1_Y198_YF]

>  <target>
Hck (UniProt P08631)

>  <phosphorylation enrichment>
0.486

$$$$
>  <querySequence>
AKIDGYITSFR

>  <target>
Hck (UniProt P08631)

>  <phosphorylation enrichment>
0.381

$$$$
>  <querySequence>
IDDNQYAFLKA [HNF4A_Y286_E285Q_YF]

>  <target>
Hck (UniProt P08631)

>  <phosphorylation enrichment>
1.64

$$$$
>  <querySequence>
RLQEDYDHSYY [ESD_Y258_G257D]

>  <target>
Hck (UniProt P08631)

>  <phosphorylation enrichment>
0.781

$$$$

For each listed entry, give its phosphorylation enrichment.
1. FTFDPYSEEEP [IL2RB_Y387_D391E_YF]
2. GGDQPYSGAGD [TYRO3_Y828_R824G]
3. LNTFHYAGVSA [POLR2A_Y1109]
4. SKAYAYVHFDS [PABPC5_Y149_G146A]
5. TQPSPYAVFRF [RPGRIP1_Y823_YF]
6. KQLFAYKMLMA [TMC2_Y209_YF]
7. DDPRTYQKFGF [OAS1_Y362_R361T_YF]
8. AIFEGYALPHA [ACTC1_Y171_P166A_YF]

result:
1: 0.584; 2: 0.474; 3: 0.45; 4: 0.398; 5: 8.6; 6: 0.566; 7: 0.526; 8: 0.43

For each listed entry, give its phosphorylation enrichment.
1. NFRTTYVNANE [KCNH2_Y475]
2. GDEEDYEEIPG [EGFR_opt_E_2015]
3. YDEYRYRSFIK [CFTR_Y517_V520F]
4. LGKGSYAKVKS [TSSK2_Y23]
5. RVVVPYEPPEV [TP53_Y220_S215R]
6. GSRGKYSSGFR [ATM_Y332]
7. NFHRGYHLQVL [CD200R1L_Y138]

result:
0.558
0.527
1.51
0.985
0.454
0.338
0.375
